biological target: T1, human plasma kallikrein (human, UniProt P03952 20-390; P03952 391-638); assay: ELISA, biotinylated pKal signal over streptavidin background
T1 construct: two disulfide-linked chains; NP_000883.2; also called pKal; hpKal
T1 sequence (P03952 20-390 limits assumed, chain 1 of 2): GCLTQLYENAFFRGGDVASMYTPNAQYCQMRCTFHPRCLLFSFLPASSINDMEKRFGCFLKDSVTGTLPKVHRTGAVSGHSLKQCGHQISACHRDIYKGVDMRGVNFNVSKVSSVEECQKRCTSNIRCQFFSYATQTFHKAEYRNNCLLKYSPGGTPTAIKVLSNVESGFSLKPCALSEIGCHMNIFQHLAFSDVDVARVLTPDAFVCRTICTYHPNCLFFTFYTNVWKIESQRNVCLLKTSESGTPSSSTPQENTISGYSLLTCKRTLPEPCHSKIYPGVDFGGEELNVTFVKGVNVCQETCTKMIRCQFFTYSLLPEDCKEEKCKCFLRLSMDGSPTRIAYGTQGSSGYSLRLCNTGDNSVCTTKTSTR
T1 sequence (P03952 391-638 limits assumed, chain 2 of 2): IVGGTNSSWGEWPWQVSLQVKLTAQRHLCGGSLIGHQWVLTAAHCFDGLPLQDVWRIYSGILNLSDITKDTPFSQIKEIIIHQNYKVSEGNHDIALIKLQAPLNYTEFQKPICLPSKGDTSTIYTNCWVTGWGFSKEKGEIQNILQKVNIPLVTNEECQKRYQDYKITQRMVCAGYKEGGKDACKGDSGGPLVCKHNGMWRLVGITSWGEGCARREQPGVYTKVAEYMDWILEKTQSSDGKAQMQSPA

BINDER: M161-C11 (Fab, V domains shown) VH: EVQLLESGGGLVQPGGSLRLSCAASGFTFSDYAMKWVRQAPGKGLEWVSSISSSGGVTQYADSVKGRFTISRDNSKNTLYLQMNSLRAEDTAVYYCAREEDYSSSWYSRRFDYYYGMDVWGQGTTVTVSS VL: QSALTQPPSVSVSPGQTASITCSGDKLGDKYVSWYQQRPGQSPVLVIYQDTKRPSGIPERFSGSNSGNTATLTISGTQAVDEADYYCQAWDSSTYVFGGGTKVTVL
ELISA (T/B): 41.8
//
BINDER: M8-A09 (Fab, V domains shown) VH: EVQLLESGGGLVQPGGSLRLSCAASGFTFSTYFMLWVRQAPGKGLEWVSSIYPSGGNTVYADSVKGRFTISRDNSKNTLYLQMNSLRAEDTAVYYCARAASPVRNYYYYGMDVWGQGTTVTVSS VL: QCELTQPPSESVSPGQTANITCSGDKLGNKYAYWYQQKPGQSPVLVIYQDNNRPSGIPERFSGSNSGNTATLTISGTQAIDEANYYCQAWDSRTVVFGGGTKLTVL
ELISA (T/B): 5.4
//
BINDER: M162-A04 (antibody, V domains shown, phage-derived Fab; also called R84-H05; M162-A4) VH: EVQLLESGGGLVQPGGSLRLSCAASGFTFSHYIMMWVRQAPGKGLEWVSGIYSSGGITVYADSVKGRFTISRDNSKNTLYLQMNSLRAEDTAVYYCAYRRTGIPRRDAFDIWGQGTMVTVSS VL: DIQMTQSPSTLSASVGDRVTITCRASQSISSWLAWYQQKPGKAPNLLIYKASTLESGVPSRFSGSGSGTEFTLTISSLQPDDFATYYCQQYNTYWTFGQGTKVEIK
ELISA (T/B): 11.4
//
BINDER: M35-G04 (Fab, V domains shown, also called 559A-M35-G04; 559A-M0035-G04) VH: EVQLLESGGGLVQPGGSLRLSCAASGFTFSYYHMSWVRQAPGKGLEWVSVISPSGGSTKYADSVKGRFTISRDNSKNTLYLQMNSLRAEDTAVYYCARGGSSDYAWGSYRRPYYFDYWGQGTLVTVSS VL: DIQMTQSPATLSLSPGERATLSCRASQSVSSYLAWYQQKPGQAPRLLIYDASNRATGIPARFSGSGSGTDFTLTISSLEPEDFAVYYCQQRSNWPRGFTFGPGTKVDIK
ELISA (T/B): 11.1
//
BINDER: M29-D09 (Fab, V domains shown, also called 559A-M29-D09 (sFab); 559A-M0029-D09) VH: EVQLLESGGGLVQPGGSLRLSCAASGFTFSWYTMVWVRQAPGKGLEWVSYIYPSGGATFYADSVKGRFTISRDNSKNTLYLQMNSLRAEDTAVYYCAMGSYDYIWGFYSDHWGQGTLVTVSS VL: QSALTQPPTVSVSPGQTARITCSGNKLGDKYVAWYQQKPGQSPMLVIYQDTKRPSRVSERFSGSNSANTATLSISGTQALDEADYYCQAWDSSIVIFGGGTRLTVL
ELISA (T/B): 47.5
//
BINDER: M145-D11 (Fab, V domains shown, also called 559A-M145-D11 (sFab); 559A-M0145-D11) VH: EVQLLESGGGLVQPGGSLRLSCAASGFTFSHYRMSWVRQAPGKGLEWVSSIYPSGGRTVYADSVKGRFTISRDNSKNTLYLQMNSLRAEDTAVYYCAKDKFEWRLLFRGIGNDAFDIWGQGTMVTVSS VL: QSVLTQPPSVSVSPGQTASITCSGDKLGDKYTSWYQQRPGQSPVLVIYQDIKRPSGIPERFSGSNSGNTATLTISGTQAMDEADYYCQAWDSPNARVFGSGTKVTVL
ELISA (T/B): 40
